- TARGET: Androgen Receptor (AR) protein (Homo sapiens, UniProt P10275, T878A)
- Construct: endogenous in cells; host or cells: LNCaP
- Sequence (P10275 whole entry T878A): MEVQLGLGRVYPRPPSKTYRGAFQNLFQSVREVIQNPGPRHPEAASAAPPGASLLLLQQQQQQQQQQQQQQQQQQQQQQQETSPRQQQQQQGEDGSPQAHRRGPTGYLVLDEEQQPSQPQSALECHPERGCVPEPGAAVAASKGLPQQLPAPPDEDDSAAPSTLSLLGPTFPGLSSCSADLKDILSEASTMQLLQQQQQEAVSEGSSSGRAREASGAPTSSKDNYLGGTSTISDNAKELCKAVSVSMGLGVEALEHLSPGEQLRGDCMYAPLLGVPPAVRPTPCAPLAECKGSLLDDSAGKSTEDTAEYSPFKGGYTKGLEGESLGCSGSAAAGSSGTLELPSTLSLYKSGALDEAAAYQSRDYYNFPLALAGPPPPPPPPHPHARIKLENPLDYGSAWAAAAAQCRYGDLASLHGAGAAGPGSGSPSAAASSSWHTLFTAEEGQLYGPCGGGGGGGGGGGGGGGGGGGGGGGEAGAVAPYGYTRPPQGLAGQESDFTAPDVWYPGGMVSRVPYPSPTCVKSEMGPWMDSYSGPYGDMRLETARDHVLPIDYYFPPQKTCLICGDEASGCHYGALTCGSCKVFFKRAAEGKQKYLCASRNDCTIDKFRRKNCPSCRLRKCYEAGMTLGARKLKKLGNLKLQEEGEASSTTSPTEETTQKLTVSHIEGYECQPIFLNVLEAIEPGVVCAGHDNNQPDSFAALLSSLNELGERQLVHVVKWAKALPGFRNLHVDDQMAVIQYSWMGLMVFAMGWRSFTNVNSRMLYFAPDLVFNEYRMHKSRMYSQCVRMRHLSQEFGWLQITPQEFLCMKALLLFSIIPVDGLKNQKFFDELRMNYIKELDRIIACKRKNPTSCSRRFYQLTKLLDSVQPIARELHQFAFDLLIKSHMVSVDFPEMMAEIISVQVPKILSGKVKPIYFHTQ
- Sequence (Q96SW2 whole entry partner): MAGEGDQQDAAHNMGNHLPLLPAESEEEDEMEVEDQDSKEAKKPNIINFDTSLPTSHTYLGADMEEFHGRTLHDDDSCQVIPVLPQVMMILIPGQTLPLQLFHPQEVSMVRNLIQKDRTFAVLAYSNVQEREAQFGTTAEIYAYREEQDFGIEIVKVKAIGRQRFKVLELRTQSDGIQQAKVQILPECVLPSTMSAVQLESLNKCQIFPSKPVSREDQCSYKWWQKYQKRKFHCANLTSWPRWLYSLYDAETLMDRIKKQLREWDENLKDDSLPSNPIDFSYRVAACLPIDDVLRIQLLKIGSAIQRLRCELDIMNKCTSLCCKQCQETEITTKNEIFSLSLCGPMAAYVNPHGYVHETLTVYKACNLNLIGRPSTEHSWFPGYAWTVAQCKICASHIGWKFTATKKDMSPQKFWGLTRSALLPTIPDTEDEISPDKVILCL
- EXPERIMENTAL DETAILS: Androgen Receptor (AR) protein degradation assay in LNCaP cells, western blotting
- Format: cell-based
- MEASUREMENT SETUP: 20 h, 0.1 μM compound
Bucketed by reported inhibition at 0.1 µM, buckets being LOW (below 80%), MEDIUM (80% to below 90%), HIGH (90% or more)

Example entries begin here.
| COMPOUND | CLASS |
| --- | --- |
| N#Cc1ccc(N2CCC(C(=O)Nc3ccc(N4CCC(CN5CC[C@H](CN6CCN(c7ccc8c(c7)C(=O)N(C7CCC(=O)NC7=O)C8=O)CC6)C5)CC4)cn3)CC2)cc1C(F)(F)F (stereo partly drawn) [Example 82] | MEDIUM |
| N#Cc1ncc(N2CCC(F)(C(=O)Nc3ccc(N4CCC(CCN5CCN(c6ccc7c(c6)C(=O)N(C6CCC(=O)NC6=O)C7=O)CC5)CC4)cn3)CC2)cc1C(F)(F)F (stereo not drawn) [Example 90] | LOW |
| N#Cc1ncc(N2CCC(C(=O)Nc3ccc(N4CCC(CN5CC6(CCN(c7ccc8c(c7)C(=O)N(C7CCC(=O)NC7=O)C8=O)CC6)C5)CC4)cn3)CC2)cc1C(F)(F)F (stereo not drawn) [Example 57] | MEDIUM |
| C[C@@H]1CN(C2CN(c3ccc4c(c3)C(=O)N(C3CCC(=O)NC3=O)C4=O)C2)CCN1CC1CCN(c2ccc(NC(=O)C3CCN(c4ccc(C#N)c(C(F)(F)F)c4)CC3)nc2)CC1 (stereo partly drawn) [Example 41] | HIGH |
| N#Cc1ccc(N2CCC(C(=O)Nc3ccc(N4CC(CN5CCC(CN6CCN(c7ccc8c(c7)C(=O)N(C7CCC(=O)NC7=O)C8=O)CC6)CC5)C4)cn3)CC2)cc1C(F)(F)F (stereo not drawn) [Example 190] | LOW |

Exercise: Consider N#Cc1ccc(N2CCC(C(=O)Nc3ccc(N4CCC5(CC4)CN(CC4CCN(c6ccc7c(c6)C(=O)N(C6CCC(=O)NC6=O)C7=O)CC4)C5)cn3)CC2)cc1C(F)(F)F (stereo not drawn) [Example 127] . To which inhibition at 0.1 µM class does it belong?
Key: LOW

Exercise: Consider N#Cc1ccc(N2CCC(C(=O)Nc3ccc(N4CCC(CN5CCN(c6ccc7c(c6)C(=O)N(C6CCC(=O)NC6=O)C7=O)CC5)CC4)cn3)CC2)cc1Cl (stereo not drawn) [Example 2] . To which inhibition at 0.1 µM class does it belong?
Key: LOW

Exercise: Consider N#Cc1ccc(N2CCC(C(=O)Nc3ccc(N4CC(CN5CCC(Oc6ccc7c(c6)C(=O)N(C6CCC(=O)NC6=O)C7=O)CC5)C4)cn3)CC2)cc1C(F)(F)F (stereo not drawn) [Example 148] . To which inhibition at 0.1 µM class does it belong?
Key: MEDIUM

Exercise: Consider C[C@@H]1CN(CC2CN(c3ccc(NC(=O)C4CCN(c5ccc(C#N)c(C(F)(F)F)c5)CC4)nc3)C2)CCN1CC1CN(c2ccc3c(c2)C(=O)N(C2CCC(=O)NC2=O)C3=O)C1 (stereo partly drawn) [Example 32] . To which inhibition at 0.1 µM class does it belong?
Key: HIGH

Exercise: Consider N#Cc1ccc(N2CCC(C(=O)Nc3ccc(CCN4CCC(Oc5ccc6c(c5)C(=O)N(C5CCC(=O)NC5=O)C6=O)CC4)cn3)CC2)cc1C(F)(F)F (stereo not drawn) [Example 167] . To which inhibition at 0.1 µM class does it belong?
Key: LOW

Exercise: Consider N#Cc1ccc(N2CCC(C(=O)Nc3ccc(N4CCC(CN5CCN(C(=O)CNc6ccc7c(c6)C(=O)N(C6CCC(=O)NC6=O)C7=O)CC5)CC4)cn3)CC2)cc1C(F)(F)F (stereo not drawn) [Example 5] . To which inhibition at 0.1 µM class does it belong?
Key: HIGH

Exercise: Consider N#Cc1ccc(N2CCC(C(=O)Nc3ncc(N4CCC(CN5CCN(CC6CCN(c7cc8c(cc7F)C(=O)N(C7CCC(=O)NC7=O)C8=O)CC6)CC5)CC4)cn3)CC2)cc1C(F)(F)F (stereo not drawn) [Example 159] . To which inhibition at 0.1 µM class does it belong?
Key: LOW

Exercise: Consider N#Cc1ccc(N2CCC(C(=O)Nc3cnc(N4CCC(CCN5CCN(c6ccc7c(c6)C(=O)N(C6CCC(=O)NC6=O)C7=O)CC5)CC4)cn3)CC2)cc1C(F)(F)F (stereo not drawn) [Example 156] . To which inhibition at 0.1 µM class does it belong?
Key: LOW

Exercise: Consider N#Cc1ccc(N2CCC(C(=O)Nc3ccc(N4CCC(CN5CCC6(CC5)CN(c5ccc7c(c5)C(=O)N(C5CCC(=O)NC5=O)C7=O)C6)CC4)cn3)CC2)cc1C(F)(F)F (stereo not drawn) [Example 63] . To which inhibition at 0.1 µM class does it belong?
Key: HIGH

* * *

- TARGET: Androgen Receptor (AR) protein (Homo sapiens, UniProt P10275, T878A)
- Construct: endogenous in cells; host or cells: LNCaP
- EXPERIMENTAL DETAILS: Androgen Receptor (AR) protein degradation assay in LNCaP cells, western blotting
- Format: cell-based
- MEASUREMENT SETUP: 20 h, 0.1 μM compound
- Protocol: Experimental Example 1: Androgen Receptor (AR) Protein Degradation Assay After treating LNCaP cells with the synthesized Example compound, the amount of AR protein present in the cells was measured. The amount of AR protein was measured using western blotting detection method. […] [Protein quantification] […] Then, absorbance was measured at a wavelength of 562 nm. The unknown protein concentration was measured using a BSA standard curve (0, 0.125, 0.25, 0.5, 1, 2 mg/ml). […]
We begin with a simple list: items and their reported inhibition at 0.1 µM.
All answers are understood in %, so give the number only.

Reference set (8 entries):
| COMPOUND | UNIT STRING | RECORDED RESULT |
| --- | --- | --- |
| N#Cc1ccc(N2CCC(F)(C(=O)Nc3ccc(N4CCC(CN5CCN(C6CCN(c7ccc8c(c7)CN(C7CCC(=O)NC7=O)C8=O)CC6)CC5)CC4)cn3)CC2)cc1C(F)(F)F (centres unmarked) [Example 141] | % | 92 |
| N#Cc1ccc(N2CCC(C(=O)Nc3ccc(CC4CCN(CC5CCN(c6cc7c(cc6F)C(=O)N(C6CCC(=O)NC6=O)C7=O)CC5)CC4)cn3)CC2)cc1C(F)(F)F (centres unmarked) [Example 182] | % | 96 |
| N#Cc1ccc(N2CCC(C(=O)Nc3ccc(N4CC(CN5CCC(COc6ccc7c(c6)C(=O)N(C6CCC(=O)NC6=O)C7=O)CC5)C4)cn3)CC2)cc1C(F)(F)F (centres unmarked) [Example 149] | % | 97 |
| N#Cc1ccc(N2CCC(C(=O)Nc3ccc(N4CCC(CN5CCN(CC6CCN(c7cccc8c7C(=O)N(C7CCC(=O)NC7=O)C8=O)CC6)CC5)CC4)cn3)CC2)cc1C(F)(F)F (centres unmarked) [Example 13] | % | 91 |
| N#Cc1ccc(N2CCC(C(=O)Nc3ccc(N4CCC(CN5CCN(CC6CN(c7cc8c(cc7F)C(=O)N(C7CCC(=O)NC7=O)C8=O)C6)CC5)CC4)cn3)CC2)cc1C(F)(F)F (centres unmarked) [Example 20] | % | 97 |
| N#Cc1ccc(N2CCC(C(=O)Nc3ccc(N4CCC(CN5CCN(C6CCN(c7ccc8c(c7)CN(C7CCC(=O)NC7=O)C8=O)CC6)CC5)CC4)cn3)CC2)cc1C(F)(F)F (centres unmarked) [Example 140] | % | 98 |
| N#Cc1ncc(N2CCC(F)(C(=O)Nc3ccc(N4CCC(CN5CC6(CCN(c7ccc8c(c7)C(=O)N(C7CCC(=O)NC7=O)C8=O)CC6)C5)CC4)cn3)CC2)cc1C(F)(F)F (centres unmarked) [Example 58] | % | 41 |
| N#Cc1ccc(N2CCC(C(=O)Nc3ccc(N4CCN(CCC5CCN(c6ccc7c(c6)C(=O)N(C6CCC(=O)NC6=O)C7=O)CC5)CC4)cn3)CC2)cc1C(F)(F)F (centres unmarked) [Example 119] | % | 90 |

Exercise: # input compound: N#Cc1ccc(N2CCC(C(=O)Nc3ccc(CCC4CCN(CC5CCN(c6ccc7c(c6)C(=O)N(C6CCC(=O)NC6=O)C7=O)CC5)CC4)cn3)CC2)cc1C(F)(F)F (centres unmarked) [Example 133] ; wanted: its inhibition at 0.1 µM
Key: 93

Exercise: # input compound: N#Cc1ccc(N2CCC(C(=O)Nc3ccc(N4CC(CN5CCN(C[C@H]6CCN(c7ccc8c(c7)C(=O)N(C7CCC(=O)NC7=O)C8=O)C6)CC5)C4)cn3)CC2)cc1C(F)(F)F (some centres unmarked) [Example 28] ; wanted: its inhibition at 0.1 µM
Key: 96

Exercise: # input compound: N#Cc1ccc(N2CCC(C(=O)Nc3ccc(N4CCC(CN5CCC(Oc6ccc7c(c6)C(=O)N(C6CCC(=O)NC6=O)C7=O)CC5)CC4)cn3)CC2)cc1C(F)(F)F (centres unmarked) [Example 146] ; wanted: its inhibition at 0.1 µM
Key: 97
